Biological target: T1, FcγRIIB-Fc fusion protein (soluble dimeric FcγRIIB) (human, UniProt P31994 43-217)
T1 construct: extracellular domain; the suffix agl in 2bfcagl is not explained; also called FcRIIB-Fc; FcγRIIB-G2; not shown: hinge-CH2-CH3 domain of human IgG2
T1 sequence (looked up): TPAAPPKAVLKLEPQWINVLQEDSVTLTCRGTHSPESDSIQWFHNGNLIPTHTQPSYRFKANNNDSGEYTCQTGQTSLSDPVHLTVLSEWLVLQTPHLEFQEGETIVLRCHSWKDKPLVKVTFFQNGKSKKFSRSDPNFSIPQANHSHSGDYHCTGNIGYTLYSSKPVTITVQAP
Experiment: SPR
observable: pKd
# log scale: pKd equals minus log10 of the concentration in mol/L

Record ch4-4-20 E293V, Q295E, A327T (antibody) EPKSCDKTHTCPPCPAPELLGGPSVFLFPPKPKDTLMISRTPEVTCVVVDVSHEDPEVKFNWYVDGVEVHNAKTKPRVEEYNSTYRVVSVLTVLHQDWLNGKEYKCKVSNKTLPAPIEKTISKAKGQPREPQVYTLPPSREEMTKNQVSLTCLVKGFYPSDIAVEWESNGQPENNYKTTPPVLDSDGSFFLYSKLTVDKSRWQQGNVFSCSVMHEALHNHYTQKSLSLSPGK , field pKd: 7.07
